# bioavailability per record follows
# Test Summary: Oral bioavailability in Sprague-Dawley rat at 19 mg/kg
# Format: ADME, organism-based
# Test Settings: in vivo
Reply with just the number (in %).

>>> numeric_value("O=C(c1ccoc1)N1CCN2C(=O)c3ccncc3[C@]12c1ccc(Cl)cc1")
35
>>> numeric_value("O=C(c1ccc(F)nc1)N1CCN2C(=O)c3ccncc3[C@]12c1ccc(Cl)cc1")
75
>>> numeric_value("O=C(c1cccnc1)N1CCN2C(=O)c3ccncc3[C@]12c1ccc(Cl)cc1 [BTA-9881]")
100

Here is the next item to consider.
Asked: Could you share which bioavailability value was measured for Cn1cc(C(=O)N2CCN3C(=O)c4ccncc4C32c2ccc(Cl)cc2)c(C(F)(F)F)n1 (racemic) ?
Given back: 38
